polymerase ribozyme fitness (log ratio) for assorted variants
B1: TPR t1 (parent)
chain: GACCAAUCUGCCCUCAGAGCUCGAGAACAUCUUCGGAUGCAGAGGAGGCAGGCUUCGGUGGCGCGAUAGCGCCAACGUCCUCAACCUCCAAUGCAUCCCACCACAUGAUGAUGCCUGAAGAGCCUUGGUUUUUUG

Variants of: B1
TEST SUMMARY: polymerase ribozyme fitness, log enrichment relative to wild type (log ratio); higher = more active; in vitro selection for triplet polymerase activity

Use the examples below as a reference point.
GACCAAUCUGCCCUCAGAGCUCGAGAACAUCUUCGGAUGCAGAGGAGGCAGGCUUGGGUGGCGCGAUAGCGCCAACGUCCUCAACCUCCAAUGCAUCCCACCACAUGAUGAUGACUGAAGAGCCUUGGUUUUUUG -2
GACCAAGCUGCCCUCAGAGCUCGAGAACAUCUUCGGAUGCAGAGGAAGCAGGCUUAGGUGGCGCGAUAGGGCCAACGUCCUCAACCUCCAAUGCAUCCCACCACAUGAUGAUGCCUGAAGAGCCUUGGUUUUUUG -5.1
GACCAAUCUGCCCUCAGAGCUCGAGAACAUCUUCGGAUGCAGAGGAGGCAGGCUUCGGUGGCGCGAUAGCGCCAACGCCCUCAACCUCCAAUGCAUCCCACUACAUGAUGAUGCCUGAAGAGCCUUGGUUUUUUG -2.14
GACCAAUCUGCCCUCAGAGCUCGAGAACAUCUUCGGAUGCAGAGGAGGCAGGCUUCGGUGGCGCGAUAGCGCCAACGUCCUCAACCUCCAAUACAUCCCACAACAUGAUGAUGCCUGAAGAGCCUUGGUUUUUUG -1.81
GACCAAUAUGCCCUCAGAGCUCGAGAACAUCUUCGGAUGCAGAGGAGGCAGGCUUCGGUGGCGCGAUAGCGCCAACGUCCUCAACCUCCAAUGCAUCCCACCACAUGAUGAUGCCUGAAGAGCCUUGGAUUUUUG -0.0105
GACCAAUCUGCCCUCAGAGCUCCAGGACAUCUUCGGAUGCAGAGGAGGCAGGCUUCGGUGGCGCGAUAGCGCCAACGUCCUCAACCUCCAAUGCAUCUCACCACGUGAUGAUGGCUGAAGAGCCUUGGUUUUUUG -7.07
GACCAAUCUGCCCUCAGAGCUCGAGAACAUCUUCGGAUGCAGAGGAGGCAGGCUUCGGUGGCGCGAUAGCGACAACGUCCUCUACCUCCAAUGCAUCCCACCACAUGAUGAUGCCUGAAGAGCCUUGUUUUUUUG -2.86
GACCAAUCUGCCCUCAGAGCUCGAGAACAUCUUCGGAUGCAGAGGAGGCAGGCUUCGGUGGCGCGAUAGCGACAACGUCCUCAACCUCCUAUGCAUCCCAACACAUGAUGAUGCCUGAAGAACCUUGGUUUUUUG -3.86
GACCAAUCUGCCCUCAGAGCUCGAGAACAUCUUCUGAUGCAGAGGAGGCAGGCUUCGGUGGCGCGAUAGUGCAAACGUCCUCAACCUCCAAUGCAUCCCACCACAUGAUGAUGCCUGAAGAGCCUUGGUUUUUUG -7.04
GAUCAAUCUGCCCUCAGAGCUCGAGAACUUCUUCGGAUGCAGAGGAGGCAGGCUUCGGUGGCGCGAUAGCGCCAACGUCCUCAACCUCCAAUGCAUCCCACCACAUGAAGAUGCCUGAAGAGCCUUGGUUUUUUG 0.179

Just so you know, measured polymerase ribozyme fitness (log ratio) for GACCAAUCUGCCCUCAGAGCUCGAGAACAUAUUCGGGUGCAGAGGAGGCAGGCUUCGGUGGCGCGAUAGCGCCAACGUCGUCAACUUCCAACGCAUCCCACCACUUGAUGUUGCCUGAAGAGCCUUGGUUUUUUG came out at -7.03

Reported polymerase ribozyme fitness (log ratio) ( GACCAAUCUGCCCUCAGAGCUCGAGAACAUCUUCGGAUGCAGAGGAGCCAGGCUUCGGUGGCGCGAUAGCGCCAACGUCCUCAACCUCCAAUGCAUCCCAACACAUGAUGAUGCCUAAAGAGCCUUGGUUUUUUG ) = -2.54

This collection of values is drawn from the RNAGym collection of RNA variant scans (doi:10.1073/pnas.2313332121).
